Tested on: Wolbachia pipientis
RUN_DESCRIPTION: Anti-Wolbachia Cell-Based Screen
Format: functional
Set-up: scale not given: in the data most compounds retested in dose-response had high values
REPORTED_CONDITIONS: 5 µM
Out of some 48,000 compounds screened, about 13,000 (27%) showed an effect of 50% or more. The list shows a part of the results.
Threshold rule: Percent Effect greater than or equal to 10% is met; below that, not met.

Cc1c(-c2cccs2)nn2c(O)c3c(nc12)CN(C(=O)C1CC1)C3    met
Cc1nc2c(c(=O)n1C)CN(C(=O)C1CCCN(C(N)=O)C1)C2 (stereo unspecified)    met
COCc1cc(N(C)Cc2cc(C(C)(C)C)n[nH]2)ncn1    not met
NC(=O)c1cccc(CCNCc2cccs2)c1    not met
COCC(=O)N1Cc2nc3c(C)c(-c4cccs4)nn3c(O)c2C1    met

Could you now look at the following compound, please?
// inclusive: Percent Effect at least 10%? input: COc1cc(C)nc(N2CCN(C(=O)CCc3cccs3)CC2)n1
not met
